Attribution: patent US10206907B2

molecular target: Recombinant human JAK1 catalytic domain (Homo sapiens (Human)); assay: JAK1 inhibition assay; format: biochemical; details: semi-quantitative score
Sequence (P23458 850-1154): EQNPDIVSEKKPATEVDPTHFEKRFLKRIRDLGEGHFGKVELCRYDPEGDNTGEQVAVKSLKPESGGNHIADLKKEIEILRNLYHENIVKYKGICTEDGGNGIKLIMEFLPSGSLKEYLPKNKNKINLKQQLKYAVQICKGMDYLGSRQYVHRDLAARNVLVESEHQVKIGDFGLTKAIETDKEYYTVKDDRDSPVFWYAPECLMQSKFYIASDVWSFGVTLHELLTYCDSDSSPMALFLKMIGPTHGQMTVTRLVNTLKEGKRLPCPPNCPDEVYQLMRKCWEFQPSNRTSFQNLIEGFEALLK
pIC50: −log10 of the molar value.
# key: entry, value: pIC50

{"Compound string": "O=C(Nc1nc2cccc(-c3ccc(C(=O)N4CCC(c5nc6ccccc6[nH]5)CC4)cc3)n2n1)C1CC1", "pIC50": "6.00 to 6.30"}
{"Compound string": "O=C(Nc1nc2cccc(-c3cn(Cc4ccccc4)nn3)n2n1)C1CC1", "pIC50": "6.00 to 6.30"}
{"Compound string": "CN1CCN(Cc2ccc(-c3cccc4nc(NC(=O)C5CC5)nn34)cc2)CC1", "pIC50": "< 6.00"}
{"Compound string": "O=C(Nc1nc2cccc(-c3ccc(CNc4ccccc4F)cc3)n2n1)C1CC1", "pIC50": "> 7.00"}
{"Compound string": "O=C(NCCc1ccccc1)c1ccc(-c2cccc3nc(NC(=O)C4CC4)nn23)cc1", "pIC50": "> 7.00"}
{"Compound string": "O=C(NCCc1cccnc1)c1ccc(-c2cccc3nc(NC(=O)C4CC4)nn23)cc1", "pIC50": "> 7.00"}
{"Compound string": "O=C(Nc1nc2cccc(-c3ccc(C(=O)N4CCC(C(F)(F)F)CC4)cc3)n2n1)C1CC1", "pIC50": "> 7.00"}
{"Compound string": "O=C(Nc1nc2cccc(-c3ccc(OCC4CCC4)cc3)n2n1)C1CC1", "pIC50": "> 7.00"}
{"Compound string": "CCOC1CCN(Cc2ccc(-c3cccc4nc(NC(=O)C5CC5)nn34)cc2)CC1", "pIC50": "6.30 to 7.00"}
{"Compound string": "O=C(NCCOc1ccccc1)c1ccc(-c2cccc3nc(NC(=O)C4CC4)nn23)cc1", "pIC50": "> 7.00"}
{"Compound string": "O=C(Nc1nc2cccc(-c3ccc(CN4CC(N5CCOCC5)C4)cc3)n2n1)C1CC1", "pIC50": "< 6.00"}
{"Compound string": "O=C(Nc1nc2cccc(-c3ccc(CC(=O)N4CCC4)cc3)n2n1)C1CC1", "pIC50": "6.30 to 7.00"}
{"Compound string": "O=C(Nc1nc2cccc(-c3ccc(C(=O)N4CCC(O)(Cc5ccccc5)CC4)cc3)n2n1)C1CC1", "pIC50": "> 7.00"}
{"Compound string": "O=C(Nc1nc2cccc(-c3ccc(CNc4ccon4)cc3)n2n1)C1CC1", "pIC50": "> 7.00"}
{"Compound string": "O=C(Nc1nc2cccc(-c3ccc(CNc4cccnc4)cc3)n2n1)C1CC1", "pIC50": "> 7.00"}
{"Compound string": "CC(=O)N1CCN(C(=O)c2ccc(-c3cccc4nc(NC(=O)C5CC5)nn34)cc2)CC1", "pIC50": "6.30 to 7.00"}
{"Compound string": "CN(C)C(=O)C1CN(C(=O)Cc2ccc(-c3cccc4nc(NC(=O)C5CC5)nn34)cc2)C1", "pIC50": "< 6.00"}

----------
experiment: Caco2 permeability (bi-directional); assay type: in vitro ADME, human; conditions: human, pH 7.4; Caco-2, apical to basolateral; read-out: Papp (A2B)

{"Compound": "O=C(NCCc1ccccc1)c1ccc(-c2cccc3nc(NC(=O)C4CC4)nn23)c(F)c1", "Unit string": "×10⁻⁶ cm/s", "Papp A→B at 1 h, 10 µM": 8.23}
{"Compound": "CC(=O)N(Cc1ccc(C#N)nc1)c1ccc(-c2cccc3nc(NC(=O)C4CC4)nn23)cc1", "Unit string": "×10⁻⁶ cm/s", "Papp A→B at 1 h, 10 µM": 1.05}
{"Compound": "Cc1cc(COc2ccc(-c3cccc4nc(NC(=O)C5CC5)nn34)cc2)no1", "Unit string": "×10⁻⁶ cm/s", "Papp A→B at 1 h, 10 µM": 31.8}
{"Compound": "O=C(Nc1nc2cccc(-c3ccc(CNC4CCS(=O)(=O)C4)cc3)n2n1)C1CC1 (centres unmarked)", "Unit string": "×10⁻⁶ cm/s", "Papp A→B at 1 h, 10 µM": 0.3}
{"Compound": "O=C(Nc1nc2cccc(-c3ccc(CNc4ccon4)cc3)n2n1)C1CC1", "Unit string": "×10⁻⁶ cm/s", "Papp A→B at 1 h, 10 µM": 8.45}
{"Compound": "O=C(Nc1nc2cccc(-c3ccc(CN4CCC(C(F)(F)F)CC4)cc3)n2n1)C1CC1", "Unit string": "×10⁻⁶ cm/s", "Papp A→B at 1 h, 10 µM": 29.6}
{"Compound": "Cn1cnc(COc2ccc(-c3cccc4nc(NC(=O)C5CC5)nn34)cc2)n1", "Unit string": "×10⁻⁶ cm/s", "Papp A→B at 1 h, 10 µM": 4.53}
{"Compound": "CN(CCc1ccccc1)C(=O)c1ccc(-c2cccc3nc(NC(=O)C4CC4)nn23)cc1", "Unit string": "×10⁻⁶ cm/s", "Papp A→B at 1 h, 10 µM": 34.6}
